Origin of measurements: ChEMBL document CHEMBL5291721

Reported AC50 by item:
molecular target: UniProt P28335
Sequence (P28335 whole entry): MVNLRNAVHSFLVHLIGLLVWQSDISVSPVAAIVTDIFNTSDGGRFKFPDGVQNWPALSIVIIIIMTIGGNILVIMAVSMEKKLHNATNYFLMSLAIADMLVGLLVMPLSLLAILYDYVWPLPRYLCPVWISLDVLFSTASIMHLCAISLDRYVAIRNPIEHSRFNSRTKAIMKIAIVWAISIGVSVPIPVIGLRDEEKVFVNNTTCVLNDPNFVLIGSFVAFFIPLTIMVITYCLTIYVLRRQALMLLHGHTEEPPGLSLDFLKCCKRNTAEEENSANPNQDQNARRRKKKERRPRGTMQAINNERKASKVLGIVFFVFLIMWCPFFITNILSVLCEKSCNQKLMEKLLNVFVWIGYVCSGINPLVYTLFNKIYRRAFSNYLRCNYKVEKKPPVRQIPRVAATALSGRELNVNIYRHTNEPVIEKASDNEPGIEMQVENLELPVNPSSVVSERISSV

| compound | target desc | AC50 |
| --- | --- | --- |
| C[C@]1(O)CC[C@H]2[C@@H]3CCC4=CC(=O)CC[C@]4(C)[C@@]3(F)[C@@H](O)C[C@@]21C [FLUOXYMESTERONE] | UniProt P28335 | > 30 µM |
| C#C[C@]1(O)CC[C@H]2[C@@H]3CCc4cc(OC5CCCC5)ccc4[C@H]3CC[C@@]21C [QUINESTROL] | UniProt P28335 | > 30 µM |
| CN(C)CCC=C1c2ccccc2C=Cc2ccccc21 [CYCLOBENZAPRINE] | UniProt P28335 | 0.88 µM |
| Cc1nc([N+](=O)[O-])cn1-c1ccc([N+](=O)[O-])cc1 [NITREFAZOLE] | UniProt P28335 | > 30 µM |
| CC(C)OC(=O)CCC/C=C\C[C@@H]1[C@@H](CC[C@@H](O)CCc2ccccc2)[C@H](O)C[C@@H]1O [LATANOPROST] | UniProt P28335 | > 30 µM |
| N[C@@H]1[C@H]2CN(c3nc4c(cc3F)c(=O)c(C(=O)O)cn4-c3ccc(F)cc3F)C[C@@H]12 [TROVAFLOXACIN] | UniProt P28335 | > 30 µM |
| CN1CCN(C2=Nc3ccccc3Sc3ccc(Cl)cc32)CC1 [CLOTHIAPINE] | UniProt P28335 | 0.8 µM |
| CS(=O)(=O)c1ccc(C2=C(c3ccccc3)C(=O)OC2)cc1 [ROFECOXIB] | UniProt P28335 | > 30 µM |
| CC[C@H]1[C@@H](O)[C@@H]2[C@H](CC[C@]3(C)[C@@H]([C@H](C)CCC(=O)O)CC[C@@H]23)[C@@]2(C)CC[C@@H](O)C[C@@H]12 [OBETICHOLIC ACID] | UniProt P28335 | > 30 µM |
| CN1C(=O)OC(C)(C)C1=O [TRIMETHADIONE] | UniProt P28335 | > 30 µM |
| Cc1cc(O)c(C(=O)N[C@@H](C(=O)N[C@@H]2C(=O)N3C(C(=O)O)=C(CSc4nnnn4C)CS[C@H]23)c2ccc(O)cc2)cn1 [CEFPIRAMIDE] | UniProt P28335 | > 30 µM |
| O=[N+]([O-])c1cn2c(n1)OC[C@@H](OCc1ccc(OC(F)(F)F)cc1)C2 [PRETOMANID] | UniProt P28335 | > 10 µM |
| O=C(NCCN1CCOCC1)c1ccc(Cl)cc1 [MOCLOBEMIDE] | UniProt P28335 | > 30 µM |
| O=C(O)CCCCCCCC(=O)O [AZELAIC ACID] | UniProt P28335 | > 30 µM |
| C=CCC1(C(C)CC)C(=O)NC(=O)NC1=O (stereo unspecified) [TALBUTAL] | UniProt P28335 | > 30 µM |
| Cc1cc(C)c(NC(=O)CN(CC(=O)O)CC(=O)O)c(C)c1Br [MEBROFENIN] | UniProt P28335 | > 30 µM |
| Cc1c(OCC(F)(F)F)ccnc1C[S+]([O-])c1nc2ccccc2[nH]1 (stereo unspecified) [LANSOPRAZOLE] | UniProt P28335 | > 10 µM |
| O=C(Cc1ccc(-c2ccccc2)cc1)Nc1ccccn1 [DIFENPIRAMIDE] | UniProt P28335 | > 30 µM |
| Cc1c(C(=O)NN2CCCCC2)nn(-c2ccc(Cl)cc2Cl)c1-c1ccc(Cl)cc1 [RIMONABANT] | UniProt P28335 | > 30 µM |
| NCC(=O)CCC(=O)O [AMINOLEVULINIC ACID] | UniProt P28335 | > 30 µM |
| Clc1ccc(CCCOCCCN2CCCCC2)cc1 [PITOLISANT] | UniProt P28335 | > 30 µM |
